# Measured Target: T1, DNA polymerase theta polymerase domain (PolQM1), T2161I (Homo sapiens, UniProt O75417 1792-2590, T2161I)
# T1 sequence: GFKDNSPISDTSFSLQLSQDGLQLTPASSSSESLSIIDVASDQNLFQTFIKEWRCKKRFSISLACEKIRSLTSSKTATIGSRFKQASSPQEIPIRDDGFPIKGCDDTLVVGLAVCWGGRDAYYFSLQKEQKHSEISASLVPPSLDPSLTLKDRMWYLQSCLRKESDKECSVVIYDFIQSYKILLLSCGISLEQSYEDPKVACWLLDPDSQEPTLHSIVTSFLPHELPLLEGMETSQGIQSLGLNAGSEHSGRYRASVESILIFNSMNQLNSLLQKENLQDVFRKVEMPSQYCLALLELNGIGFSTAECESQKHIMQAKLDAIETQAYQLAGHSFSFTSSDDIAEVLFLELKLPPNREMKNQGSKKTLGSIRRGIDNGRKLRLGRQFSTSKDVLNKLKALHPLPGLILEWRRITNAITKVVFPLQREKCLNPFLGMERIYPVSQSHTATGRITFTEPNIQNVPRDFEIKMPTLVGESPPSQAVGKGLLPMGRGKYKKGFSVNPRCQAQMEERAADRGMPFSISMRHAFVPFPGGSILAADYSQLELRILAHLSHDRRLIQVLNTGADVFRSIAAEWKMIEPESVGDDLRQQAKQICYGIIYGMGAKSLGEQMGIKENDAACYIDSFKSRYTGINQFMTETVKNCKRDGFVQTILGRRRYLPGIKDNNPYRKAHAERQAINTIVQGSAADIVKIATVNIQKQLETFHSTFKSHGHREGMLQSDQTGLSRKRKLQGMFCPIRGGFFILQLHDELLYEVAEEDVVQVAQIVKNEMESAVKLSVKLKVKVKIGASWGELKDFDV
# Assay Name: EMSA; 6 mM MgCl2; EMSA: 10 mM Tris-HCl pH 7.5, 6 mM MgCl2, 100 mM NaCl, 10% glycerol, 0.1% NP-40; 10 nM DNA, 0-1000 nM protein, 1 h at room temperature; 6% native PAGE
# Experimental Setup: protein: recombinant; tags: 6xHis-SUMO, cleaved off; label: 5'-6-FAM on primer; 22 bp; 5' overhang 18 nt on template; 5' overhang 3 nt (TTT) on primer
pKd: −log10 of the molar value.
Experimental Endpoint: pKd

Binder: 25/40 primer-template duplex (CG template) (dsDNA) DNA 1: TTTGCCTTGACCATGTAACAGAGAG DNA 2: TCTCTTCTCTCACTCACGCTCTCTGTTACATGGTCAAGGC
Recorded Measurement: 7.89
